Tested System: Galectin-3 (Mus musculus)
Sequence (P16110 whole entry): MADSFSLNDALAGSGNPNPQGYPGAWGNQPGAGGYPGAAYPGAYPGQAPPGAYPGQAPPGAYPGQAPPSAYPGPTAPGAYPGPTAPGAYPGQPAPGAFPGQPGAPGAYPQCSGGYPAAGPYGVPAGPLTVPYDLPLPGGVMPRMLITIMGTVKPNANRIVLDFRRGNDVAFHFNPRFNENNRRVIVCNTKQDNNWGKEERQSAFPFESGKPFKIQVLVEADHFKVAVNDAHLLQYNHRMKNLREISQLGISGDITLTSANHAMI
Test Description: Binding affinity to mouse galectin-3 assessed as dissociation constant by competitive fluorescence polarization assay
Assay Metric: Kd (nM)
Reply with just the number (in nM).

Given item `OC[C@H]1O[C@@H](S[C@@H]2O[C@H](CO)[C@H](O)[C@H](n3cc(-c4csc(O)n4)nn3)[C@H]2O)[C@H](O)[C@@H](n2cc(-c3cc(F)c(F)c(F)c3)nn2)[C@H]1O` , the value recorded as its Kd is 34

---

Tested System: Galectin-3 (Mus musculus)
Test Description: Binding affinity to mouse galectin-3 assessed as dissociation constant by fluorescein probe based fluorescence polarization assay
Assay Metric: pKd
The scale used: pKd is minus the common logarithm of the concentration in molar units.

Given item `CO[C@@H]1[C@@H](n2cc(-c3csc(O)n3)nn2)[C@@H](O)[C@@H](CO)O[C@@H]1Sc1ccc(Cl)c(Cl)c1` , the value recorded as its pKd is 5.38

---

Tested System: Galectin-9 (Homo sapiens)
Sequence (O00182 whole entry): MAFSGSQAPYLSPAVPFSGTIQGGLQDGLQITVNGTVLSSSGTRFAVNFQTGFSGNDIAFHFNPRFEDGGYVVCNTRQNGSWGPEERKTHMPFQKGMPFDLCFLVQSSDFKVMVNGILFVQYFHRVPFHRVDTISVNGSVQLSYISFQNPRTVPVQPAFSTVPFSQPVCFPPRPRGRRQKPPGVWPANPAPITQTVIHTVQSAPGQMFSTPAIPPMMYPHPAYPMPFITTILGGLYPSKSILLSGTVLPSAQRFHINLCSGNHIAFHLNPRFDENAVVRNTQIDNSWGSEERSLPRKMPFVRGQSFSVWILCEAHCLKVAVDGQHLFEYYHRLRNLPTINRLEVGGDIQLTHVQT
Test Description: Inhibition of N-terminal human galectin-9 by competitive fluorescence polarization assay
Assay Metric: Kd
Show the value, then the unit it is measured in.

Given item `CO[C@@H]1[C@@H](n2cc(-c3csc(O)n3)nn2)[C@@H](O)[C@@H](CO)O[C@@H]1Sc1ccc(Cl)c(Cl)c1` , the value recorded as its Kd is 18.6 µM

---

Test Description: Apparent permeability across apical to basal side in human Caco-2 cells at 10 uM incubated for 90 mins by LC-MS/MS analysis
Reported Papp A→B at 1.5 h, 10 µM values are given for each entry in this list.

# annotated cases, reported Papp A→B at 1.5 h, 10 µM shown
- Smiles Code: "OC[C@H]1O[C@H](Sc2ccc(Cl)c(Cl)c2)[C@H](O)[C@@H](n2cc(-c3csc(O)n3)nn2)[C@H]1O"
  Assay Metric: "Papp A→B at 1.5 h, 10 µM"
  Test Result: "< 1.5 ×10⁻⁶ cm/s"
- Smiles Code: "CO[C@@H]1[C@@H](n2cc(-c3csc(N)n3)nn2)[C@@H](O)[C@@H](CO)O[C@@H]1Sc1cc(Cl)c(F)c(Cl)c1"
  Assay Metric: "Papp A→B at 1.5 h, 10 µM"
  Test Result: "3.5 ×10⁻⁶ cm/s"
- Smiles Code: "OC[C@H]1O[C@H](Sc2cc(Cl)c(F)c(Cl)c2)[C@H](O)[C@@H](n2cc(-c3csc(O)n3)nn2)[C@H]1O"
  Assay Metric: "Papp A→B at 1.5 h, 10 µM"
  Test Result: "0.3 ×10⁻⁶ cm/s"

Given item `Nc1csc(-c2cn([C@@H]3[C@@H](O)[C@@H](Sc4cc(Cl)c(F)c(Cl)c4)O[C@H](CO)[C@@H]3O)nn2)n1` , the value recorded as its Papp A→B at 1.5 h, 10 µM is 3.1 ×10⁻⁶ cm/s

---

Tested System: Galectin-4 (Homo sapiens, UniProt P56470)
Sequence (P56470 whole entry): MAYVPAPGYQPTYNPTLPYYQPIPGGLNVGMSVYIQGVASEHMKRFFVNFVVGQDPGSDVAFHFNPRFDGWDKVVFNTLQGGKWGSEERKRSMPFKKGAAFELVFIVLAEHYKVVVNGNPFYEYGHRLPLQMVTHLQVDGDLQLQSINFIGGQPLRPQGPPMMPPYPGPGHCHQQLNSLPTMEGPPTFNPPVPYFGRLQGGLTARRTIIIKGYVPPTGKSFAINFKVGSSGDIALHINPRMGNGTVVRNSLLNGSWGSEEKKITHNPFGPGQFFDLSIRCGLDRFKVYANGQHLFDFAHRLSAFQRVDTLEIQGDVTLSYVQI
Test Description: Inhibition of C-terminal human galectin-4 by competitive fluorescence polarization assay
Assay Metric: pKd
The scale used: pKd is minus the common logarithm of the concentration in molar units.

Given item `CO[C@@H]1[C@@H](n2cc(-c3csc(O)n3)nn2)[C@@H](O)[C@@H](CO)O[C@@H]1Sc1ccc(Cl)c(Cl)c1` , the value recorded as its pKd is 6.34

---

Test Description: Efflux ratio of apparent permeability across apical to basal side over basal to apical side in human Caco-2 cells at 10 uM incubated for 90 mins by LC-MS/MS analysis
One threshold, 10, splits the recorded efflux ratio at 1.5 h, 10 µM values: lower ones are YES, equal or higher ones are NO.

- Smiles Code: "OC[C@H]1O[C@H](Sc2cc(Cl)c(F)c(Cl)c2)[C@H](O)[C@@H](n2cc(-c3cscn3)nn2)[C@H]1O"
  Discrete Label: "YES"

Then this compound:
Prompt line: Determine whether this compound shows efflux ratio at 1.5 h, 10 µM lower than 10 (ties excluded): `CO[C@@H]1[C@@H](n2cc(-c3csc(N)n3)nn2)[C@@H](O)[C@@H](CO)O[C@@H]1Sc1cc(Cl)c(F)c(Cl)c1`
Response line: NO

Hey, just so you know, these numbers are from ChEMBL document CHEMBL5500389.
